Tested on: SN12C
Assay: NCI tumour cell line growth inhibition, 48 h
Active and inactive are the calls of the source. No stated cut-off is given here; in the data, active = GI50 up to about 1.1 µM and inactive = higher.
QUANTITY: GI50

MOLECULE	QUANTITY	VAL
CCOC(=O)c1nc2ccccc2nc1Nc1ccc(F)cc1	GI50	40.6 µM (inactive)
C=CCOC(=O)c1c(C)[n+]([O-])c2cc(Cl)c(Cl)cc2[n+]1[O-]	GI50	24.3 µM (inactive)
O=C1CC(O)c2cscc21 (stereo not given)	GI50	> 100 µM (inactive)
Cc1ccc(NC(=O)c2ccccc2C(=O)O)cc1C	GI50	> 100 µM (inactive)

Let us move to another entry and its GI50.
stdin: Fill in GI50 for O=C1CSC(c2ccccc2)N1c1nc2cc3sc(N4C(=O)CSC4c4ccccc4)nc3cc2s1 (stereo not given) tested with SN12C.
stdout: 32.4 µM (inactive)

====

System: UACC-257
Assay: NCI tumour cell line growth inhibition, 48 h
Activity calls are given as the source filed them. Cut-off read from the data, not from the text of the source: active = GI50 up to about 1.1 µM and inactive = higher.
QUANTITY: GI50

MOLECULE	VAL
CC1=CC(C)(C)NN1C1=NS(=O)(=O)c2ccccc2N1C	> 100 µM (inactive)

stdin: Fill in GI50 for Nc1ncnc2c1ncn2[C@@H]1C[C@H]1CO tested with UACC-257.
stdout: > 100 µM (inactive)

stdin: Fill in GI50 for CC1(C)Cc2nc3c(cc2C(=O)C1/C=N/C(C#N)=C(\N)C#N)C(=O)C(/C=N/C(C#N)=C(\N)C#N)C(C)(C)C3 (configuration not stated) tested with UACC-257.
stdout: 2.51 µM (inactive)

stdin: Fill in GI50 for CNc1ccc(C(=O)CC(O)CCC(C)C2OC(=O)CC(O)CC(=O)CC(O)CC(O)CC(O)CC(O)CC3(O)CC(O)C(C(=O)NCCN4CCOCC4)C(CC(OC4OC(C)C(O)C(N)C4O)\C=C/C=C\C=C/C=C/C=C/C=C\C=C/C2C)O3)cc1 (configuration not stated) tested with UACC-257.
stdout: 0.537 µM (active)

stdin: Fill in GI50 for COC1O[C@H]2[C@H]3[C@@H]1[C@@H](OS(=O)(=O)c1ccc(C)cc1)C(=O)N3C[C@H]2O (some centres not stated) tested with UACC-257.
stdout: > 100 µM (inactive)

stdin: Fill in GI50 for O=[N+]([O-])c1ccc2c(c1)/C(=N/N=C1c3ccccc3Cc3ccccc31)c1cc([N+](=O)[O-])cc([N+](=O)[O-])c1-2 tested with UACC-257.
stdout: 2.08 µM (inactive)

stdin: Fill in GI50 for COc1ccc2c(c1)/C(=C\c1c(Cl)nc3n1CCS3)C(=O)N2 tested with UACC-257.
stdout: 5.48 µM (inactive)

====

Tested on: 786-0
Assay: NCI tumour cell line growth inhibition, 48 h
Calls of active or inactive are those of the source. No stated cut-off is given here; in the data, active = GI50 up to about 1.1 µM and inactive = higher.
# GI50 annotations

COMPOUND	TESTED SYSTEM	GI50
Cn1c(=O)c(-c2ccccc2)c(O)c2ccccc21	786-0	> 100 µM (inactive)
O=C1/C(=C\c2cccc(Oc3ccccc3)c2)S(=O)(=O)C(c2ccccc2)N1c1cc(Cl)ccc1Cl (stereo not given)	786-0	16.1 µM (inactive)
COC(=O)[C@]1(c2cc3ccccc3[nH]2)CC2CN(CC(=O)N(C)OC)C1CC2(OC)OC (stereo not given in full)	786-0	22.2 µM (inactive)
CC1=CC(=O)N(c2c(C)cccc2Cl)C(C)N1 (stereo not given)	786-0	> 100 µM (inactive)
COc1cccc2c1C(=O)c1c(O)c3c(c(O)c1C2=O)C[C@@](O)(C(=O)CO)CC3OC1CC(NCCCC(OC(C)=O)OC(C)=O)C(O)C(C)O1 (stereo not given in full)	786-0	0.00219 µM (active)

stdin: Report measured GI50; entry is O=C(CCC(=O)Nc1ccc(Cl)c(Cl)c1)CC(=O)c1ccc2ccccc2c1
stdout: > 100 µM (inactive)

stdin: Report measured GI50; entry is Nc1nc(Cl)cc(NCCO)n1
stdout: > 100 µM (inactive)

stdin: Report measured GI50; entry is Cc1cc(Br)cc(C)c1NC(=O)C(=O)C1C(=O)C(CC2C(=O)c3ccccc3C2=O)C(=O)CC1(C)C (stereo not given)
stdout: > 100 µM (inactive)

stdin: Report measured GI50; entry is Cc1cc2nn(C3CCCCO3)nc2cc1C (stereo not given)
stdout: > 100 µM (inactive)

stdin: Report measured GI50; entry is CN1CCCS/C1=C1/SC(=S)N(c2ccccc2)C1=O
stdout: > 100 µM (inactive)

stdin: Report measured GI50; entry is O=C1NC(Cc2c[nH]c3ccccc23)C(=O)N2C(c3ccccc3)c3[nH]c4ccccc4c3C[C@@H]12 (stereo not given in full)
stdout: 16.2 µM (inactive)

====

System: MDA-N
Assay: NCI tumour cell line growth inhibition, 48 h
Activity calls are given as the source filed them. Cut-off read from the data, not from the text of the source: active = GI50 up to about 1.1 µM and inactive = higher.
Write down the outcome that applies. Available outcomes: active, inactive

COMPOUND	CAT
CCc1nnc(CC)n1N1C(=O)CCC1=O	inactive
CN1CCC(CNC(=O)CCCCCCCCC(=O)NCC2(c3ccccc3)CCN(C)CC2)(c2ccccc2)CC1	inactive
C=C1CC(C)(COc2ccc3c(C)c(Cl)c(=O)oc3c2)OC1=O (stereo not given)	active
CN1c2ccccc2S(=O)(=O)n2c(COc3ccccc3)nnc21	inactive

Kindly review the next compound as well.
stdin: Answer briefly: the call reported for C=CCOC(=O)c1c(C)[n+]([O-])c2cc(Cl)c(Cl)cc2[n+]1[O-] in this assay.
stdout: inactive

====

# GI50 annotations
System: MDA-MB-231
Experiment: NCI tumour cell line growth inhibition, 48 h
Activity calls are given as the source filed them. Rule as the data show it: active = GI50 up to about 1.1 µM and inactive = higher. Residues, ends and D or L forms follow the SMILES beside them. *: point of attachment. Fmoc = O=C(OCC1c2ccccc2-c2ccccc21)*; Boc = CC(C)(C)OC(=O)*

MOLECULE	TESTED SYSTEM	VAL
Cc1cccc(C(C)(C)C)c1NC(=O)C(C#N)C1=C(Cl)C(=O)c2ccccc2C1=O (stereo unspecified)	MDA-MB-231	14 µM (inactive)

stdin: Report measured GI50; entry is [N-]=[N+]=NI1OC(C(F)(F)F)(C(F)(F)F)c2ccccc21
stdout: 15.1 µM (inactive)

stdin: Report measured GI50; entry is O=c1c2cn[nH]c2nc2scc(-c3ccc(Cl)cc3)n12
stdout: > 100 µM (inactive)

stdin: Report measured GI50; entry is COc1ccc(N2C(=O)C3c4[nH]c5ccccc5c4C4CCCCCCCC4C3C2=O)cc1 (stereo unspecified)
stdout: > 10 µM (inactive)

stdin: Report measured GI50; entry is COc1cc(/C=C2/C[C@H]3[C@@H]4CCC5=CC(=O)CC[C@]5(C)[C@H]4CC[C@]3(C)NC2=O)cc(OC)c1OC
stdout: 19.7 µM (inactive)

stdin: Report measured GI50; entry is N/C(=N\Nc1ccc(S(N)(=O)=O)cc1)c1cnccn1
stdout: > 100 µM (inactive)

stdin: Report measured GI50; entry is CCN(CCCl)c1cc(CN(C)C)cc(NC(=O)c2ccc(C(=O)Nc3cccc(CN(C)C)c3)cc2)c1
stdout: 28.1 µM (inactive)

stdin: Report measured GI50; entry is CN1CCN(C(=S)N(C(=O)c2ccco2)C2CCCCC2)CC1
stdout: > 100 µM (inactive)

stdin: Report measured GI50; entry is O=C1NC(Cc2c[nH]c3ccccc23)C(=O)N2C(c3ccccc3)c3[nH]c4ccccc4c3C[C@@H]12 (stereo partly specified)
stdout: 20.6 µM (inactive)

stdin: Report measured GI50; entry is C/C(Cc1ccc2c(c1)OCO2)=N\N=c1\sc2ccccc2n1C
stdout: > 100 µM (inactive)

stdin: Report measured GI50; entry is CC(C)(C)OC(=O)NCCCCC(NC(=O)C(Cc1c[nH]c2ccccc12)NC(=O)OCC1c2ccccc2-c2ccccc21)C(=O)N1CCCC1C(=O)NCC(N)=O (stereo unspecified) (Fmoc-WK(Boc)PG-NH2; configuration not given here)
stdout: 42.5 µM (inactive)

stdin: Report measured GI50; entry is CC1=NN(C(=O)CC(=O)Nc2ccc(Cl)cc2)C(=O)C1/N=N\c1ccc(S(=O)(=O)c2ccc(/N=N/C3C(=O)N(C(=O)CC(=O)Nc4ccc(Cl)cc4)N=C3C)cc2)cc1 (stereo unspecified)
stdout: 51.9 µM (inactive)

stdin: Report measured GI50; entry is Cc1ccc(/C=N/Nc2ncccn2)s1
stdout: > 100 µM (inactive)

stdin: Report measured GI50; entry is CC1OC(OC2C(OC(=O)[C@]34CCC(C)(C)C[C@H]3C3=CC[C@@H]5[C@@]6(C)CC[C@H](OC7OC(CO)C(O)C(O)C7OC7OC(CO)C(O)C(O)C7O)C(C)(C)[C@@H]6CC[C@@]5(C)[C@]3(C)CC4)OCC(O)C2O)C(O)C(OC2OCC(O)C(O)C2O)C1OC1OCC(O)C(OC2OCC(O)C(O)C2O)C1O (stereo partly specified)
stdout: 7.6 µM (inactive)

stdin: Report measured GI50; entry is CCCCCCCCCCCCCCCCCC(=O)OCC(COC1OC(COP(=O)(O)O)C(O)C(O)C1O)OC(=O)CCCCCCCCCCCCCCCCC (stereo unspecified)
stdout: 3.04 µM (inactive)

stdin: Report measured GI50; entry is C[C@]12CC[C@H]3[C@@H](CCC4=CC(=O)CC[C@@H]43)[C@@H]1CC[C@]2(O)C(N)=O
stdout: > 100 µM (inactive)

stdin: Report measured GI50; entry is O=C1CC(O)c2cscc21 (stereo unspecified)
stdout: > 100 µM (inactive)
